experiment: chemical genetic growth profiling, strain panel (AID 1159580);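 note: tested at 20 µM; growth read once vehicle control cultures reached saturation at 30 °C; 1 = growth at the plate median or of vehicle wells; lower values mean less growth of the strain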; conditions: S. cerevisiae deletion strains, growth OD, locus YEL037C, strain rad23, active compounds read low
About 2,000 (36%) of roughly 5,500 compounds were called active. About 18% were inconclusive and are not listed. The list shows a part of the results.
Exam item: assign label 1 to entries whose normalized growth is below 1 and label 0 to entries at or above 1. Note that a value of exactly 1 receives label 0.

Worked cases, answers included:
# TODO verify normalized growth < 1 strictly for this compound: COc1ccc(-c2coc3cc(O)ccc3c2=O)c(OC)c1O
label 1

# TODO verify normalized growth < 1 strictly for this compound: O=C(NC(=O)c1ccccc1Cl)Nc1ccc(OC(F)(F)F)cc1
label 0

# TODO verify normalized growth < 1 strictly for this compound: CC[C@]1(O)CC2CN(CCc3c([nH]c4ccccc34)[C@@](C(=O)OC)(c3cc4c(cc3OC)N(C)[C@H]3[C@@](O)(C(=O)OC)[C@H](OC(C)=O)[C@]5(CC)C=CCN6CC[C@]43[C@@H]65)C2)C1 (some centres not stated)
label 1

# TODO verify normalized growth < 1 strictly for this compound: O=C(/C=C/c1ccc(O)c(O)c1)OCCc1ccccc1
label 1

# ---- query compound ----
# TODO verify normalized growth < 1 strictly for this compound: C=C[C@@](C)(O)CCC1C(=C)CCC2[C@@](C)(CO)CCC[C@]12C (some centres not stated)
label 0
